# Target or test system: Serine/threonine-protein kinase/endoribonuclease IRE1 (Homo sapiens, UniProt O75460)
# Sequence (O75460 whole entry): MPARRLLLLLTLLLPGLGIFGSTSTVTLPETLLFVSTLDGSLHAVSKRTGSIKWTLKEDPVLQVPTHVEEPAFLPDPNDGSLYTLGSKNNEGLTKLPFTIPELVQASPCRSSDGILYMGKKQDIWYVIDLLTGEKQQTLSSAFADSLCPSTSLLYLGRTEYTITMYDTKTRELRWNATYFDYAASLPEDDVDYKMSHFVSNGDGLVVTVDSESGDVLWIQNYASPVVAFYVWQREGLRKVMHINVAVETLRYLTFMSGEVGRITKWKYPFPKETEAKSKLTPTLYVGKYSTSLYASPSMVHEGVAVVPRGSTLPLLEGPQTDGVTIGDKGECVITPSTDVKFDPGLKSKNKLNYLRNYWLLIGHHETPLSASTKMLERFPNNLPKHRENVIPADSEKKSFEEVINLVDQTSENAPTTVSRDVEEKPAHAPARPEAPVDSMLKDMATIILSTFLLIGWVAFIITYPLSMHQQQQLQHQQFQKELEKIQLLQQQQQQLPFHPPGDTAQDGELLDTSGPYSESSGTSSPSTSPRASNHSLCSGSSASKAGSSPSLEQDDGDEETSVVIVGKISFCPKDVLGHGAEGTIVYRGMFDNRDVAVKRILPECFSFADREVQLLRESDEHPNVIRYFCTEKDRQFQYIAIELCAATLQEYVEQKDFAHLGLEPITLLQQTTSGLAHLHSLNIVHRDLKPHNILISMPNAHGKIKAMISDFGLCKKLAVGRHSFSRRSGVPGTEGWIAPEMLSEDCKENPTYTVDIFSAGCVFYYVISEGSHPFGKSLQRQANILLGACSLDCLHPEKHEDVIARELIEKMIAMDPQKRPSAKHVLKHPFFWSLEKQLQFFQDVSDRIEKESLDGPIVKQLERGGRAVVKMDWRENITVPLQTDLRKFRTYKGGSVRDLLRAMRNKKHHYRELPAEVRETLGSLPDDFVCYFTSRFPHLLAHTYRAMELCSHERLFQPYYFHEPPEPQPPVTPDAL
Attribute measured: pIC50
Friendly reminder that pIC50 comes from taking -log10 of the concentration in mol/L.

## Input If you can, please state the reported pIC50 value of c1cc(Cc2nc3ccccc3[nH]2)cc(Oc2ncsc2-c2ccnc(N[C@H]3CCCNC3)n2)c1 .
## Output 6.35
